# Test system: S. mansoni adult worms
# PROCEDURE_SUMMARY: Motility assay on adult parasites (pixel displacement, relative to DMSO control)
# Type: cell-based, Schistosoma mansoni
# MEASUREMENT_SETUP: secondary screen, 10 μM, D1, Male adult worms

COMPOUND	Fractional motility
CCc1ccc(OCc2ccccc2C(=O)Nc2ccc3nc(C)cc(N)c3c2)cc1	4.15
Cc1ccc(C(=O)N(CCCN)[C@@H](c2oc3cc(Cl)ccc3c(=O)c2Cc2ccccc2)C(C)C)cc1	1.48
COCCn1c2c([n+](Cc3cnccn3)c1C)C(=O)c1ccccc1C2=O	1.90
c1cc(-c2cnn3cc(-c4ccc(N5CCNCC5)cc4)cnc23)c2cccnc2c1	0.78
NC(=O)C(c1ccccc1)(c1ccccc1)[C@@H]1CCN(CCc2ccc3c(c2)CCO3)C1	3.54
O=[N+]([O-])C=Cc1ccc2c(c1)OCO2	-0.40
CCCCCCCCCCCCCCCCn1cc[n+](Cc2ccccc2)c1C.[I-]	0.53
COC(=O)C1=CCCN(C)C1	-0.79
CN(C)CCC=C1c2ccccc2CCc2ccccc21	1.53
CCCCCCCCOc1ccccc1C(=O)Nc1ccc(C(=O)OCC[N+](C)(CC)CC)cc1	0.16
CN(C)[C@@H](CCOc1cccc2ccccc12)c1ccccc1	2.05
Cc1c(C(=O)NN2CCCCC2)nn(-c2ccc(Cl)cc2Cl)c1-c1ccc(Cl)cc1	0.0659
CC(C)(C)c1cc(NC(=O)Nc2ccc(-c3cn4c(n3)sc3cc(OCCN5CCOCC5)ccc34)cc2)no1	4.64
O=C1Cc2cc(CCN3CCN(c4nsc5ccccc45)CC3)c(Cl)cc2N1	0.47
CN(C)CC/C=C1/c2ccccc2Sc2ccc(Cl)cc21	2.53
CNCc1ccc(C)c(NC(=O)c2ccc(Nc3nc(-c4ccccc4)c4ccccc4n3)cc2)c1	-0.59
COCCCC/C(=N\OCCN)c1ccc(C(F)(F)F)cc1	4.13
CN(C)CCC[C@@]1(c2ccc(F)cc2)OCc2cc(C#N)ccc21	6.67
